- Procedure details: Cell viability (MTT test) in BV-2 cells
- Format: cell-based, murine
- Condition description: mouse, BV-2 microglial cells, 24 h, MTT, mean ± SD (n = 3), read-out: Cell viabillity (%)
Metric name: viability at 24 h, 10 µM (%)
The figure you give is taken to be in %; do not add the unit.

Consider the reported viability at 24 h, 10 µM for these compounds:
Cc1cc(O)c2c(c1)O[C@@]1(C)OC[C@H](C)C1C2 (stereo partly drawn) [Compound 2, xyloketal K]	98.3
COC1=CC(=O)c2c(O)c3c(c(O)c2C1=O)C[C@](C)(O)[C@H](O)[C@H]3O [Compound 3, bostrycin]	10.7

Summary for this compound, COc1cc(O)c2c(c1O)[C@@H](O)[C@@H]1C[C@](C)(O)[C@H](O)C[C@@H]1C2=O [Compound 5, xylanthraquinone] : viability at 24 h, 10 µM is 103

Summary for this compound, C/C=C/C=C(\CO)C(/C=C/C)CO (stereo not drawn) [Compound 1, nigaurdiol] : viability at 24 h, 10 µM is 103

Summary for this compound, COC1=CC(=O)c2c(O)c3c(c(O)c2C1=O)C[C@](C)(O)[C@H](O)C3 [Compound 4, deoxybostrycin] : viability at 24 h, 10 µM is 11.3

Summary for this compound, CC(C)[C@@H](C)/C=C/[C@@H](C)[C@H]1CC[C@H]2C3=CC=C4C[C@@H](O)CC[C@]4(C)[C@H]3CC[C@]12C [Compound 6, ergosterol] : viability at 24 h, 10 µM is 90.8
